The origin of these recorded values is ChEMBL document CHEMBL3507680.

cytotoxicity at 70.5 h listing for selected compounds.
assay: Human HepG2 cell viability assay in 384 well format; type: toxicity, cell-based; parameters: dose 125 nL, time 70.5 hour; concentration not given beside the values; conditions: HepG2 cells, read-out: Inhibition

Cc1ccnc(NC(=O)c2ccc(Br)o2)c1: -4.47%
COCCC(=O)N1CCN(CCN(C)C)c2ncccc2C1: -6.14%
O=C(NCc1cccnc1)N1CCc2ncnc(C3CC3)c2CC1: 5.6%
CCO[C@@H]1CCN(C(=O)c2ccc[nH]2)[C@@H]1Cc1cccnc1: -6.51%
CCCN(Cc1ccc(C(=O)NCC2COCCO2)c(=O)[nH]1)C1CC1 (stereo not drawn): 50.6%

Query: I am curious: what cytotoxicity at 70.5 h value has been reported for "CCOc1ccnc(N2CCN(C(=O)c3ccncc3)CC2)n1" ?
Response: -9.15%

Query: I am curious: what cytotoxicity at 70.5 h value has been reported for "Cc1nc(CN2CCN(c3ccc(SC(C)C)nn3)CC2)cs1" ?
Response: 11.1%

Query: I am curious: what cytotoxicity at 70.5 h value has been reported for "O=C1O[C@@H]2CN(C3CCOCC3)C[C@@H]2N1CCc1cccc(Cl)c1" ?
Response: -1.7%

====

experiment: Human HepG2 cell viability assay in 384 well format; type: toxicity, cell-based; set-up: dose 125 nL, time 70.5 hour; concentration not given beside the values; conditions: HepG2 cells, read-out: Inhibition
parameter: cytotoxicity at 70.5 h (%)
Just the number in %, nothing appended.

Worked examples, 10 molecules total:
O=C(c1ccncc1)N1CCN2C[C@H](Oc3cncnc3)C[C@H]2C1: 1.56
FC(F)(F)c1cc(-c2cccs2)nc(N2CCN3CCCC3C2)n1 (configuration not stated): -13.6
COc1ccccc1OCC(=O)N1CCN(Cc2noc(C)n2)CC1: -10.6
Cc1cc(C)cc(CN2CCCC2c2noc(C)n2)c1 (configuration not stated): 0.367
COc1cc2c(nn1)CCN(Cc1noc(-c3ccccc3)n1)C2: 2.93
Cc1cnc(N2CCC[C@@H]3CN(S(C)(=O)=O)C[C@@H]32)nc1: -14.9
CCNC(c1ccc(C)cc1)c1cccnc1 (configuration not stated): 0.38
CCOc1ccc(Cl)cc1CCNC(=O)N1CCCC(CO)C1 (configuration not stated): -7.21
O=C(c1ccsc1)N1C[C@@H](CN2CCCC2)[C@@H](CO)C1: 13.3
COCCOc1ncccc1CNC(=O)N1CCOCC1: -7.27

Query: I am curious: what cytotoxicity at 70.5 h value has been reported for Fc1ccc(-c2nnc(CN3CCCC3Cn3cncn3)o2)cc1 (configuration not stated) ?
Response: -8.54

Query: I am curious: what cytotoxicity at 70.5 h value has been reported for "O=C(NCC1CC1)N1CCN(Cc2ccc3c(c2)OCCO3)CC1" ?
Response: 2.86

====

cytotoxicity at 70.5 h listing for selected molecules.
assay: Human HepG2 cell viability assay in 384 well format; type: toxicity, cell-based; parameters: dose 125 nL, time 70.5 hour; concentration not given beside the values; details: HepG2 cells, read-out: Inhibition
Just the number in %, nothing appended.

Worked examples, 3 molecules total:
Cn1ncc2c1CCCC2NCc1cccc(F)c1 (stereo not drawn): -14.3
O=C(CN1CCCCC1Cn1cncn1)NCCOc1ccccc1 (stereo not drawn): -1.79
O=C(Nc1cnn(C2CCOCC2)c1)c1ccc2c(c1)OCO2: -16

Query: I am curious: what cytotoxicity at 70.5 h value has been reported for "CN1CCC(N[C@@H]2CO[C@H](CNC(=O)c3cccs3)[C@H]2O)CC1" ?
Response: -6.9

====

experiment: Human HepG2 cell viability assay in 384 well format; assay type: toxicity, cell-based; set-up: dose 125 nL, time 70.5 hour; concentration not given beside the values; conditions: HepG2 cells, read-out: Inhibition
parameter: cytotoxicity at 70.5 h (%)
Just the number in %, nothing appended.

Cc1ccc(C(=O)N2CCOc3nc(C)ccc32)c(F)c1: 26.7
COc1ccc(CCN)cc1-c1ccc(O)cc1: -13.9
CCNC(c1ccc(C(C)C)cc1)c1cccnc1 (centres undefined): 2.26
CN1C(=O)CC(c2ccncc2)C12CCN(c1ncccn1)CC2 (centres undefined): -0.583
CC(=O)Nc1ccc(Oc2cc(C)nc(C3CCNCC3)c2)cc1: -15.5
CC(C)N(C)Cc1cncc2c1CCN(Cc1cccs1)C2: -3.46

Query: I am curious: what cytotoxicity at 70.5 h value has been reported for "O=C(c1sccc1C1CC1)N1CCN(CC(F)(F)F)CC1" ?
Response: -1.63

Query: I am curious: what cytotoxicity at 70.5 h value has been reported for CC(C)n1cnnc1C1CCCN(S(=O)(=O)CCCC#N)C1 (centres undefined) ?
Response: -35.2

Query: I am curious: what cytotoxicity at 70.5 h value has been reported for "Cc1nn(C)c(C)c1CNC(=O)c1cc(NC(=O)C2CC2)n(C)n1" ?
Response: -7.51

====

cytotoxicity at 70.5 h listing for selected compounds.
experiment: Human HepG2 cell viability assay in 384 well format; assay type: toxicity, cell-based; design: dose 125 nL, time 70.5 hour; concentration not given beside the values; conditions: HepG2 cells, read-out: Inhibition
Just the number in %, nothing appended.

Worked examples, 3 compounds total:
O=C(c1ccccn1)N1CCc2nc(-c3cnccn3)nc(O)c2C1: -3.62
O=C(O)c1ccccc1-c1ccc(CNC(=O)C2CCOCC2)cc1: -4.99
Cc1cc(CC(C)NC(=O)Cc2cc(F)ccc2C)[nH]n1 (stereo unspecified): 3.68

Query: I am curious: what cytotoxicity at 70.5 h value has been reported for "COCCN1CC(=O)c2sc(NCc3ccccc3)nc2C1" ?
Response: 0.849

Query: I am curious: what cytotoxicity at 70.5 h value has been reported for CC(=O)N(C)Cc1ncn2c1CN(C(=O)C1CCCO1)CCC2 (stereo unspecified) ?
Response: -5.86

Query: I am curious: what cytotoxicity at 70.5 h value has been reported for "CC(C)=CCN1CCN(C(=O)c2cc(C)n[nH]2)[C@H]2CS(=O)(=O)C[C@H]21" ?
Response: 0.726

Query: I am curious: what cytotoxicity at 70.5 h value has been reported for CC(C)c1noc(C(C)N2CCN(Cc3cccc(C#N)c3)CC2)n1 (stereo unspecified) ?
Response: -11

Query: I am curious: what cytotoxicity at 70.5 h value has been reported for CC(NC(=O)NCCNc1ccccn1)c1cccs1 (stereo unspecified) ?
Response: -1.83

Query: I am curious: what cytotoxicity at 70.5 h value has been reported for "CC(C)NC(=O)[C@H]1CCS(=O)(=O)[C@@H]2CN(c3ncccn3)C[C@H]12" ?
Response: -6.18

Query: I am curious: what cytotoxicity at 70.5 h value has been reported for "O=C(Cn1cc(Cl)cn1)Nc1ccc2c(c1)OCO2" ?
Response: -2

Query: I am curious: what cytotoxicity at 70.5 h value has been reported for "CN1CCN(C(=O)c2cccc(CN3CCOCC3)c2)CC1" ?
Response: -2.6

Query: I am curious: what cytotoxicity at 70.5 h value has been reported for COCCCN1CC2(CCCN(c3ncc4nc[nH]c4n3)C2)CCC1=O (stereo unspecified) ?
Response: -11.3

Query: I am curious: what cytotoxicity at 70.5 h value has been reported for CCc1nc(C2CCCN2CC(=O)N2CCCc3ccccc32)no1 (stereo unspecified) ?
Response: 22

Query: I am curious: what cytotoxicity at 70.5 h value has been reported for Cc1nc(CN2CCCC(c3cnccn3)C2)cs1 (stereo unspecified) ?
Response: -2.76

Query: I am curious: what cytotoxicity at 70.5 h value has been reported for COc1cccc(S(=O)(=O)NC(=O)CCC2CCCO2)c1 (stereo unspecified) ?
Response: 1.07

Query: I am curious: what cytotoxicity at 70.5 h value has been reported for "O=C(C1CCN(S(=O)(=O)N2CCCC2)CC1)N1CCC2(CC1)OCCO2" ?
Response: -7.18

Query: I am curious: what cytotoxicity at 70.5 h value has been reported for "N#CC1(NC(=O)c2ccc(-c3nc(C4CC4)n[nH]3)cc2)CC1" ?
Response: -12.9

Query: I am curious: what cytotoxicity at 70.5 h value has been reported for CCC(=O)N1CCCC(C(=O)N2CCN(c3cnn(C)c(=O)c3)CC2)C1 (stereo unspecified) ?
Response: -12.7

Query: I am curious: what cytotoxicity at 70.5 h value has been reported for CCC(NC(=O)c1ccc(OC)nn1)c1nc(C(F)(F)F)cs1 (stereo unspecified) ?
Response: -6.03

Query: I am curious: what cytotoxicity at 70.5 h value has been reported for "Cc1nc(-c2ccc(CNS(=O)(=O)N(C)C)cc2)ccc1C(N)=O" ?
Response: -2.19

Query: I am curious: what cytotoxicity at 70.5 h value has been reported for CCC(=O)N1CCC2(COCc3c(C)nc(N(C)C)nc32)C1 (stereo unspecified) ?
Response: 20.3

====

cytotoxicity at 70.5 h listing for selected compounds.
test: Human HepG2 cell viability assay in 384 well format; format: toxicity, cell-based; design: dose 125 nL, time 70.5 hour; concentration not given beside the values; conditions: HepG2 cells, read-out: Inhibition
Just the number in %, nothing appended.

O=C(NCc1nnc2n1CCCCC2)N(CC1CCOC1)C1CC1 (stereo not drawn): 17.7
CC(=O)c1cccc(OCCCC(=O)N(C)Cc2cnc(C)s2)c1: -6.22

Query: I am curious: what cytotoxicity at 70.5 h value has been reported for "CN(CCC(=O)NC1CC1)Cc1ccc(Cl)s1" ?
Response: -7.03

Query: I am curious: what cytotoxicity at 70.5 h value has been reported for "CN1CCN([C@@H]2CN(C(=O)c3ccnnc3)[C@@H]3CCCO[C@H]23)CC1" ?
Response: -3.3

Query: I am curious: what cytotoxicity at 70.5 h value has been reported for "CCc1csc(CCNC(=O)CC2CCN(C(C)C)CC2)n1" ?
Response: 23

Query: I am curious: what cytotoxicity at 70.5 h value has been reported for "CNC(=O)CCNC(=O)c1cc(C)n(-c2cccc(OC)c2)c1C" ?
Response: -8.45

Query: I am curious: what cytotoxicity at 70.5 h value has been reported for Cc1cc(CN(C)CC(c2cccs2)N2CCOCC2)on1 (stereo not drawn) ?
Response: -7.4

Query: I am curious: what cytotoxicity at 70.5 h value has been reported for "Cc1noc(C)c1NC(=O)CCn1cc(Br)ccc1=O" ?
Response: -8.23
